target_system: Ubiquitin carboxyl-terminal hydrolase 7 (Homo sapiens)
assay_overview: Inhibition of recombinant full length USP7 (unknown origin) using ubiquintin-rhodamine as substrate preincubated for 30 mins followed by substrate addition measured after 1 hr by fluorescence-based Envision plate reader assay
measured_endpoint: log10 IC50 (log10 of the value in nM)
Quick note: numbers are log10 of IC50, with nM as the unit.

Illustrative cases are given below, each with its answer.
compound | target_system | recorded_measurement
Cc1cc(Cl)cc(-c2ccnc3cc(CN4C(=O)C5CC5C4=O)sc23)c1C[C@H]1OCCN[C@@H]1C (mixture of isomers) | Ubiquitin carboxyl-terminal hydrolase 7 (Homo sapiens) | 0.18
Cn1nc2c(c1[C@H]1Cc3cc(Cl)cc(-c4ccnc5cc(CN6C(=O)CCC6=O)sc45)c3O1)CNCC2 | Ubiquitin carboxyl-terminal hydrolase 7 (Homo sapiens) | 0.04
Cc1cc(Cl)cc(-c2ccnc3cc(CN4C(=O)C5C(C4=O)C5(C)C)sc23)c1OC1CCCNC1 (configuration not stated) | Ubiquitin carboxyl-terminal hydrolase 7 (Homo sapiens) | 0.38

Query block: Entry "Cc1cc2nccc(-c3cc(Cl)cc4c3O[C@@H](C(=O)N3CCNCC3)C4)c2s1" : reported log10 IC50 = ?
Result block: 2.11

Query block: Sample Cc1cc(Cl)cc(-c2ccnc3cc(CN4C(=O)C5C(C4=O)C5(C)C)sc23)c1CC1CCCNC1 (configuration not stated) — what was its log10 IC50?
Result block: 0.11

Query block: State the recorded log10 IC50 for this entry: Cc1cc(Cl)cc(-c2ccnc3cc(CN4C(=O)C5C(C4=O)C5(C)C)sc23)c1O[C@@H]1CCNC[C@@H]1C (some centres not stated)
Result block: -0.74

----------
assay_overview: AUC in nude mouse at 30 mg/kg, po
Format: ADME, organism-based
test_settings: in vivo
measured_endpoint: AUC (ng·h/mL)
Report only the number, with the unit ng·h/mL understood.

Query block: Request the reported AUC associated with Cc1cc(Cl)cc(-c2ccnc3cc(CN4C(=O)C5C(C4=O)C5(C)C)sc23)c1C[C@@H]1CNCCO1 (stereo partly specified)
Result block: 4600

----------
Target sequence: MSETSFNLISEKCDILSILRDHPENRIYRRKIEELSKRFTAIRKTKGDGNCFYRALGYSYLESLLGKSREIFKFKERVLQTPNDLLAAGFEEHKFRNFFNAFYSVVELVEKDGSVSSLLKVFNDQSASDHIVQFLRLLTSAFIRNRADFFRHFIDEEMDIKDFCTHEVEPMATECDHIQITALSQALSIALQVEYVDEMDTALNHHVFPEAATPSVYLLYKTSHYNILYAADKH
measured_endpoint: IC50

Query block: Need IC50, item Cc1cc(Cl)cc(-c2ccnc3cc(CN4C(=O)C5C(C4=O)C5(C)C)sc23)c1O[C@@H]1CCNC[C@@H]1C (stereo partly specified)
Result block: > 10 µM

----------
target_system: Ubiquitin carboxyl-terminal hydrolase 7 (Homo sapiens, UniProt Q93009)
Sequence (Q93009 whole entry): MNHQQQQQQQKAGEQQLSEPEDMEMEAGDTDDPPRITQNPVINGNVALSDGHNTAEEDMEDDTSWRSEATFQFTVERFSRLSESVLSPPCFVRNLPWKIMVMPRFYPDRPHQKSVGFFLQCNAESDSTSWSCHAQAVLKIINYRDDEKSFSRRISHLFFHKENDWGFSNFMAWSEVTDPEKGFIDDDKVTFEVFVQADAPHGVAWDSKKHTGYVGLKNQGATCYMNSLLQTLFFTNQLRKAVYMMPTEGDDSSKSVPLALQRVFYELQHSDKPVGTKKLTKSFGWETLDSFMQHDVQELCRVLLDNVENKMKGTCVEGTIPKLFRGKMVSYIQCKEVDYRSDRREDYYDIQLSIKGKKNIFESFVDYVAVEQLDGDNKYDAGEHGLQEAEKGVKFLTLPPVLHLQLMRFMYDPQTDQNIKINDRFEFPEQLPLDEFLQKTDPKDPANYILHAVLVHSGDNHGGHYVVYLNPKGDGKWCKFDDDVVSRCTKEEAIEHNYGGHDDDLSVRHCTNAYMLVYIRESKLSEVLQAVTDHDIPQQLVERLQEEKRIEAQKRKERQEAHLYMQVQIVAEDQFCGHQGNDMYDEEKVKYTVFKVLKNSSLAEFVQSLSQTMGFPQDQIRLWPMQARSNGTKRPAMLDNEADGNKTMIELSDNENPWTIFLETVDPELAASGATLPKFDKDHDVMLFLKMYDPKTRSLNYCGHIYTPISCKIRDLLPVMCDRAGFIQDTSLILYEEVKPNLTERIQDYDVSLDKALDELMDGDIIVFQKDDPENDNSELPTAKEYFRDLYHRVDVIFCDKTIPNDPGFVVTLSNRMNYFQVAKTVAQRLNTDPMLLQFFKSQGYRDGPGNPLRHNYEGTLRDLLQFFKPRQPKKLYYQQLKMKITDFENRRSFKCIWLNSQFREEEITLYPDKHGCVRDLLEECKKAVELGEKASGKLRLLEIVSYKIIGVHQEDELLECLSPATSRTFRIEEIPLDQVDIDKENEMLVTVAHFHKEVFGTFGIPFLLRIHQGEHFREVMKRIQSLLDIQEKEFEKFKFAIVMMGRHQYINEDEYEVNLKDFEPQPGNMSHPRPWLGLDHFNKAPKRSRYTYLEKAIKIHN
assay_overview: Inhibition of recombinant full length USP7 (unknown origin) using ubiquintin-rhodamine as substrate preincubated for 30 mins followed by substrate addition measured after 1 hr by fluorescence-based Envision plate reader assay
measured_endpoint: log10 IC50 (log10 of the value in nM)
Give log10 of IC50, with IC50 taken in nM.

Query block: Provide value of log10 IC50 for this record tested with Ubiquitin carboxyl-terminal hydrolase 7 (Homo sapiens, UniProt Q93009): "Cc1cc(Cl)cc(-c2ccnc3cc(CN4C(=O)CCC4=O)sc23)c1O[C@@H]1CCNC[C@@H]1C"
Result block: 0.32

Query block: Under Ubiquitin carboxyl-terminal hydrolase 7 (Homo sapiens, UniProt Q93009): log10 IC50 value of Cc1cc(Cl)cc(-c2ccnc3cc(CN4C(=O)C5C(C4=O)C5(C)C)sc23)c1NC1CCCNC1 (stereo not given) ?
Result block: -0.11

Query block: Record lookup: for Ubiquitin carboxyl-terminal hydrolase 7 (Homo sapiens, UniProt Q93009), what log10 IC50 belongs to "O=C1CCC(=O)N1Cc1cc2nccc(-c3cc(Cl)ccc3O[C@@H]3CNC[C@@H]3F)c2s1" ?
Result block: 2.32

Query block: Look up log10 IC50 with Ubiquitin carboxyl-terminal hydrolase 7 (Homo sapiens, UniProt Q93009) for this compound: "O=C([C@H]1Cc2cc(Cl)cc(-c3ccnc4cc(Cn5cnccc5=O)sc34)c2O1)N1CCNCC1"
Result block: 1.43

Query block: // lookup log10 IC50 | system=Ubiquitin carboxyl-terminal hydrolase 7 (Homo sapiens, UniProt Q93009) | key= "O=C([C@H]1Cc2cc(Cl)cc(-c3ccnc4ccsc34)c2O1)N1CCNCC1"
Result block: 1.95

----------
Target sequence: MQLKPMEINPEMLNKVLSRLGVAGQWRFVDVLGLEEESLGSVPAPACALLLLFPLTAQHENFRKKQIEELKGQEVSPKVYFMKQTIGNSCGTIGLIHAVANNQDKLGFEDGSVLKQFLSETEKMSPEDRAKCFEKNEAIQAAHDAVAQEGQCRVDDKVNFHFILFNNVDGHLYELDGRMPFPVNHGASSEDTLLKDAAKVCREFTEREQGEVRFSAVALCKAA
pIC50: −log10 of the molar value.
measured_endpoint: pIC50

Query block: # input molecule: Cc1cc(Cl)cc(-c2ccnc3cc(CN4C(=O)C5C(C4=O)C5(C)C)sc23)c1O[C@@H]1CCNC[C@@H]1C (stereo partly specified) ; wanted: its pIC50
Result block: < 5.00

----------
target_system: Voltage-gated inwardly rectifying potassium channel KCNH2 (Homo sapiens)
Sequence (Q12809 whole entry): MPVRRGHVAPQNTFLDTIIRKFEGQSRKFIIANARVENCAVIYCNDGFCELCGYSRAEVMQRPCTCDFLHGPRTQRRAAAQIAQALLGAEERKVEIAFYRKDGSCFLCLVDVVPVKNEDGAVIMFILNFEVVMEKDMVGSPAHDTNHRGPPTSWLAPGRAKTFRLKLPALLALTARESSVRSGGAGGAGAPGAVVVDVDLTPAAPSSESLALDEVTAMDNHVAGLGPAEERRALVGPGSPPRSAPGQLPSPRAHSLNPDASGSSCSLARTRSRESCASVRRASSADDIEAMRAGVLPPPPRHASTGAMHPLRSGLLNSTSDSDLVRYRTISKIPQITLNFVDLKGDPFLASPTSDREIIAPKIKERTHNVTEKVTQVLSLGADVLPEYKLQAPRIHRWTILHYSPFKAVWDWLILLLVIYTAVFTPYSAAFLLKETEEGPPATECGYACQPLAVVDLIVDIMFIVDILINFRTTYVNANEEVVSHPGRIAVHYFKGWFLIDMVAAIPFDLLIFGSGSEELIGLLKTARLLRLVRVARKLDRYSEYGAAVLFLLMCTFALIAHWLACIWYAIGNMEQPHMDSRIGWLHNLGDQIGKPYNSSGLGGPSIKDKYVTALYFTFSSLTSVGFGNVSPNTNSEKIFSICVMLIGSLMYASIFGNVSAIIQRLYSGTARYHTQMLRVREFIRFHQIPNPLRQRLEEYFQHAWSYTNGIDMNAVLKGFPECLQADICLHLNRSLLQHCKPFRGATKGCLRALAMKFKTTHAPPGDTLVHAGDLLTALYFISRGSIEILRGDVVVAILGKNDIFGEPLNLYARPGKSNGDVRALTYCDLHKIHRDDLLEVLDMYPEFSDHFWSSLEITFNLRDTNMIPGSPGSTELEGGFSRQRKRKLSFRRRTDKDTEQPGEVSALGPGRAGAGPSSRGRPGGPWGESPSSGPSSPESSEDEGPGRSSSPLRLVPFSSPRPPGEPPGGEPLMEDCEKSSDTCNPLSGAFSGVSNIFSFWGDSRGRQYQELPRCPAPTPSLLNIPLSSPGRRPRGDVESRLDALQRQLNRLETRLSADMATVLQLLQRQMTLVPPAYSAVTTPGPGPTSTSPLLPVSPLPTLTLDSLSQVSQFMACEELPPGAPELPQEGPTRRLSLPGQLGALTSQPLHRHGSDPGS
Form field: pIC50 (one value per entry).
Interpret pIC50 as the negative base-10 log of the concentration measured in mol/L.

Please review the following examples before continuing.
molecule | pIC50
Cc1cc(Cl)cc(-c2ccnc3cc(CN4C(=O)CCC4=O)sc23)c1CN1[C@@H](C)CNC[C@@H]1C | 5.57
Cc1cc(Cl)cc(-c2ccnc3cc(CN4C(=O)C5C(C4=O)C5(C)C)sc23)c1C[C@@H]1CNCCO1 (some centres undefined) | 5.38

Query block: What value of pIC50 on Voltage-gated inwardly rectifying potassium channel KCNH2 (Homo sapiens) does Cc1cc(Cl)cc(-c2ccnc3cc(CN4C(=O)C5CC5C4=O)sc23)c1C[C@@H]1CNCCO1 (some centres undefined) have?
Result block: 5.10

Query block: Give the reported pIC50 for Cc1cc(Cl)cc(-c2ccnc3cc(CN4C(=O)C5C(C4=O)C5(C)C)sc23)c1O[C@@H]1CCNC[C@@H]1C (some centres undefined) (system: Voltage-gated inwardly rectifying potassium channel KCNH2 (Homo sapiens)).
Result block: 6.40

----------
target_system: Ubiquitin carboxyl-terminal hydrolase 16 (Homo sapiens)
Sequence (Q9Y5T5 whole entry): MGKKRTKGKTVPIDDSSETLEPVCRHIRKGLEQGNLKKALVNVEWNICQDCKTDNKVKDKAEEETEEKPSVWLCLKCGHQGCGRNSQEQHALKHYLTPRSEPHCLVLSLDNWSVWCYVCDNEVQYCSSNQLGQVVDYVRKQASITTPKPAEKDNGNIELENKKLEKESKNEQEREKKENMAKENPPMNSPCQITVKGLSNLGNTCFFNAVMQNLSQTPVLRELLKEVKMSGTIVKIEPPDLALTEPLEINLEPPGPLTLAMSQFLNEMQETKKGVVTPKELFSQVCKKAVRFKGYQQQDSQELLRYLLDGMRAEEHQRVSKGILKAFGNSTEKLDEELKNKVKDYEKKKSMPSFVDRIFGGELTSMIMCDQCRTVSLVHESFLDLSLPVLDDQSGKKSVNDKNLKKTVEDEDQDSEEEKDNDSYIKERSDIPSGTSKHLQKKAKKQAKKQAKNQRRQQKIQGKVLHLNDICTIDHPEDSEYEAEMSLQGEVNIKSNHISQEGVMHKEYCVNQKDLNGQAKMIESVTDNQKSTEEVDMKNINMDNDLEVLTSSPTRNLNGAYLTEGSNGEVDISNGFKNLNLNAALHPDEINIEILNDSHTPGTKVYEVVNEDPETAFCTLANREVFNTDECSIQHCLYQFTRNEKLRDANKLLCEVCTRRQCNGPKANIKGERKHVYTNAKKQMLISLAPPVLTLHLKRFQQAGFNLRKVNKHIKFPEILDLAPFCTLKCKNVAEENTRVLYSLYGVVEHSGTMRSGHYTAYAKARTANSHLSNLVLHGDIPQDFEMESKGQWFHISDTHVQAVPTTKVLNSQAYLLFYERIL
pIC50: −log10 of the molar value.
measured_endpoint: pIC50

Query block: Request: pIC50, test system Ubiquitin carboxyl-terminal hydrolase 16 (Homo sapiens), entry Cc1cc(Cl)cc(-c2ccnc3cc(CN4C(=O)C5C(C4=O)C5(C)C)sc23)c1O[C@@H]1CCNC[C@@H]1C (stereo partly specified)
Result block: < 5.00

----------
assay_overview: AUC in Sprague-Dawley rat at 2 mg/kg, po
Type: ADME, organism-based
test_settings: in vivo
measured_endpoint: log10 AUC (log10 of the value in ng·h/mL)
For clarity, the numbers are log10 values of AUC expressed in ng·h/mL.

Example entries begin here.
molecule | log10 AUC
Cc1cc(Cl)cc(-c2ccnc3cc(CN4C(=O)CCC4=O)sc23)c1O[C@@H]1CNC[C@@H]1F | 2.11
Cc1cc(Cl)cc(-c2ccnc3cc(CN4C(=O)C5C(C4=O)C5(C)C)sc23)c1O[C@@H]1CCNC[C@@H]1C (stereo partly specified) | 3.67
Cc1cc(Cl)cc(-c2ccnc3cc(Cn4c(=O)ccn(CC(F)(F)F)c4=O)sc23)c1O[C@@H]1CCNC[C@@H]1C | 1.72

Query block: Field request: log10 AUC | item: "Cc1cc(Cl)cc(-c2ccnc3cc(CN4C(=O)CCC4=O)sc23)c1O[C@H]1CCCNC1"
Result block: 2.23

Query block: Which log10 AUC value belongs to "Cc1cc(Cl)cc(-c2ccnc3cc(CN4C(=O)CCC4=O)sc23)c1OC1CCNCC1" ?
Result block: 1.64

Query block: Value lookup for log10 AUC; key = "Cc1cc(Cl)cc(-c2ccnc3cc(CN4C(=O)CCC4=O)sc23)c1O[C@@H]1CCNC[C@@H]1C"
Result block: 2.93

----------
target_system: Ataxin-3-like protein (Homo sapiens, UniProt Q9H3M9)
Sequence (Q9H3M9 whole entry): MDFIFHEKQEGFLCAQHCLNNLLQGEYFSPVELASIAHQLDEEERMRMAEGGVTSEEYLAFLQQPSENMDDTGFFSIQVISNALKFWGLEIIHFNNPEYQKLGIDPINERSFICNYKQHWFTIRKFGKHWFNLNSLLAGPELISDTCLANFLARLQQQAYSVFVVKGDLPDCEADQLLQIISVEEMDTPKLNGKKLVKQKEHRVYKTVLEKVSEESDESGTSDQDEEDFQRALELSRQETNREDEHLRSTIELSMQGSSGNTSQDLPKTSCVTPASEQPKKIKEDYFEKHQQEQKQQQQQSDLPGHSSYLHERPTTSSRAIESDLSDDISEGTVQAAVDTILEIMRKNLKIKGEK
pIC50: −log10 of the molar value.
measured_endpoint: pIC50

Query block: Please look up its pIC50: Cc1cc(Cl)cc(-c2ccnc3cc(CN4C(=O)C5C(C4=O)C5(C)C)sc23)c1O[C@@H]1CCNC[C@@H]1C (stereo partly specified)
Result block: < 5.00
